# System: TNF-α
# ASSAY COMMENT: TNF-α inhibitory properties (ELISA), PaCa2 cell lysate
# Assay type: cell-based, human
# CONDITION DETAILS: at 10 μM, control 111.8 ± 2.0
METRIC NAME: TNF-α pg/mL (± SEM) PaCa2 (pg/mL)
Entry rule: numbers only, all in pg/mL.

For orientation, consider the following solved cases.
• CCOP(=O)(OCC)N1C/C(=C\c2ccc(Cl)cc2)C(=O)C2(C1)C(c1ccc(Cl)cc1)CN(C)C21C(=O)Nc2ccc(F)cc21 (stereo not drawn) [Compound 17i] = 22.8
• CCOP(=O)(OCC)N1C/C(=C\c2ccc(C)cc2)C(=O)C2(C1)C(c1ccc(C)cc1)CN(C)C21C(=O)Nc2ccc(F)cc21 (stereo not drawn) [Compound 17n] = 96.3

Moving on to the next compound.
Field TNF-α pg/mL (± SEM) PaCa2 (entry CCOP(=O)(OCC)N1C/C(=C\c2ccc(Cl)cc2)C(=O)C2(C1)C(c1ccc(Cl)cc1)CN(C)C21C(=O)Nc2ccc(C)cc21 (stereo not drawn) [Compound 17k] ) reads 24.3

----------
SI (selectivity index) A549 values by entry
# Tested on: A549 (lung) cancer cell line
# ASSAY COMMENT: 2D-monolayer antiproliferation (MTT) against A549
# Type: cell-based, human
# CONDITION DETAILS: IC50 of RPE1 normal cell/IC50 of A549
Quick one: just the number, no unit, thanks!

* CCOP(=O)(OCC)N1C/C(=C\c2cccs2)C(=O)C2(C1)C(c1cccs1)CN(C)C21C(=O)Nc2ccc(Cl)cc21 (stereo not drawn) [Compound 17s] | 1.3

Consider the additional compound presented here.
Value sought: SI (selectivity index) A549, system A549 (lung) cancer cell line, item CCOP(=O)(OCC)N1C/C(=C\c2ccccc2)C(=O)C2(C1)C(c1ccccc1)CN(C)C21C(=O)Nc2ccc(Cl)cc21 (stereo not drawn) [Compound 17c] . Result: 1.1

----------
List of IC50 values.
# Test system: RPE1 (normal human immortalized retinal pigment epithelial cell line)
# ASSAY COMMENT: cells
# Format: cell-based
# CONDITION DETAILS: Homo sapiens, RPE-1; MTT, normal RPE1 cell; read-out: IC50, μM ± SEM RPE1
Respond with the bare value in µM.

Study these solved cases before continuing.
• CCOP(=O)(OCC)N1C/C(=C\c2ccc(Cl)cc2)C(=O)C2(C1)C(c1ccc(Cl)cc1)CN(C)C21C(=O)Nc2ccc(C)cc21 (stereo not shown) [Compound 17k] = 8.15
• CCOP(=O)(OCC)N1C/C(=C\c2ccc(Br)cc2)C(=O)C2(C1)C(c1ccc(Br)cc1)CN(C)C21C(=O)Nc2ccccc21 (stereo not shown) [Compound 17l] = 7.85
• CCOP(=O)(OCC)N1C/C(=C\c2ccccc2)C(=O)C2(C1)C(c1ccccc1)CN(C)C21C(=O)Nc2ccc(Cl)cc21 (stereo not shown) [Compound 17c] = 13.8

Here is the next item to consider.
// assay RPE1 (normal human immortalized retinal pigment epithelial cell line), entry CCOP(=O)(OCC)N1C/C(=C\c2ccc(F)cc2)C(=O)C2(C1)C(c1ccc(F)cc1)CN(C)C21C(=O)Nc2ccc(Cl)cc21 (stereo not shown) [Compound 17f] , IC50 value = 39.9

----------
# reported inhibition at 10 µM; entries follow
# TESTED TARGET: COX-1 (Ovis aries, UniProt P05979)
# Construct: purchased BioVision incorporated USA K548–100
# Sequence (P05979 25-600): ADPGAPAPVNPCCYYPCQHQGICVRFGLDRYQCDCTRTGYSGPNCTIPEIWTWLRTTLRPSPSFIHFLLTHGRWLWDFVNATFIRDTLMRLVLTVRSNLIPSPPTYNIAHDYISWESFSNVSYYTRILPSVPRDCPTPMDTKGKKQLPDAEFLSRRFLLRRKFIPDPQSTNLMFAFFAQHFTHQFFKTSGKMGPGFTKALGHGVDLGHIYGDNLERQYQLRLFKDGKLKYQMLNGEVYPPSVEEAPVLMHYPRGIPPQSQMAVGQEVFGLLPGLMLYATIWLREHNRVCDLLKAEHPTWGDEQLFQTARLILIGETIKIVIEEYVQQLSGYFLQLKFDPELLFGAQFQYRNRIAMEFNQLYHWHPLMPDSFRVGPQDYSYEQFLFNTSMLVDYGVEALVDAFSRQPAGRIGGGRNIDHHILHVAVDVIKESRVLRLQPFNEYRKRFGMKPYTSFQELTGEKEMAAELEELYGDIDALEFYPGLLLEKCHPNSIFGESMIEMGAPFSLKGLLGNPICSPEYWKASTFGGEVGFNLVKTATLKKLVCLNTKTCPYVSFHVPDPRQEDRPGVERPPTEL
# ASSAY COMMENT: biochemical
# CONDITION DETAILS: 3 replicates, read-out: % Inhibition of COX-1 ± SEM
Give a bare numeral; the unit % is implied.

Worked examples, 2 molecules total:
- CCOP(=O)(OCC)N1C/C(=C\c2ccc(C)cc2)C(=O)C2(C1)C(c1ccc(C)cc1)CN(C)C21C(=O)Nc2ccccc21 (stereo not drawn) [Compound 17m]: 58.3
- CCOP(=O)(OCC)N1C/C(=C\c2cccs2)C(=O)C2(C1)C(c1cccs1)CN(C)C21C(=O)Nc2ccc(F)cc21 (stereo not drawn) [Compound 17r]: 55.5

Consider now this further molecule.
Entry CCOP(=O)(OCC)N1C/C(=C\c2ccc(OC)cc2)C(=O)C2(C1)C(c1ccc(OC)cc1)CN(C)C21C(=O)Nc2ccccc21 (stereo not drawn) [Compound 17p] ; inhibition at 10 µM = 51.1

----------
# System: PaCa2 (pancreatic) cancer cell line
# ASSAY COMMENT: 2D-monolayer antiproliferation (MTT) against PaCa2
# Format: cell-based, human
# CONDITION DETAILS: IC50 of RPE1 normal cell/IC50 of PaCa2
METRIC NAME: SI (selectivity index) PaCa2

- CCOP(=O)(OCC)N1C/C(=C\c2ccc(Br)cc2)C(=O)C2(C1)C(c1ccc(Br)cc1)CN(C)C21C(=O)Nc2ccccc21 (stereo not drawn) [Compound 17l]: 1.3
- CCOP(=O)(OCC)N1C/C(=C\c2ccccc2)C(=O)C2(C1)C(c1ccccc1)CN(C)C21C(=O)Nc2ccc(F)cc21 (stereo not drawn) [Compound 17b]: 1.9
- CCOP(=O)(OCC)N1C/C(=C\c2ccc(C)cc2)C(=O)C2(C1)C(c1ccc(C)cc1)CN(C)C21C(=O)Nc2ccc(F)cc21 (stereo not drawn) [Compound 17n]: > 3.3
- CCOP(=O)(OCC)N1C/C(=C\c2ccc(F)cc2)C(=O)C2(C1)C(c1ccc(F)cc1)CN(C)C21C(=O)Nc2ccc(Cl)cc21 (stereo not drawn) [Compound 17f]: 7.6
- CCOP(=O)(OCC)N1C/C(=C\c2ccccc2)C(=O)C2(C1)C(c1ccccc1)CN(C)C21C(=O)Nc2ccccc21 (stereo not drawn) [Compound 17a]: 1.3

Continue with the next compound.
According to the records, this compound CCOP(=O)(OCC)N1C/C(=C\c2ccc(C)cc2)C(=O)C2(C1)C(c1ccc(C)cc1)CN(C)C21C(=O)Nc2ccccc21 (stereo not drawn) [Compound 17m] displays SI (selectivity index) PaCa2 of 1.7

----------
# TESTED TARGET: VEGFR-2 (Homo sapiens, UniProt P35968)
# Construct: endogenous in cells; host or cells: HCT116, PaCa2, MCF7 (human cancer cell lines, ATCC origin)
# Sequence (P35968 20-1356): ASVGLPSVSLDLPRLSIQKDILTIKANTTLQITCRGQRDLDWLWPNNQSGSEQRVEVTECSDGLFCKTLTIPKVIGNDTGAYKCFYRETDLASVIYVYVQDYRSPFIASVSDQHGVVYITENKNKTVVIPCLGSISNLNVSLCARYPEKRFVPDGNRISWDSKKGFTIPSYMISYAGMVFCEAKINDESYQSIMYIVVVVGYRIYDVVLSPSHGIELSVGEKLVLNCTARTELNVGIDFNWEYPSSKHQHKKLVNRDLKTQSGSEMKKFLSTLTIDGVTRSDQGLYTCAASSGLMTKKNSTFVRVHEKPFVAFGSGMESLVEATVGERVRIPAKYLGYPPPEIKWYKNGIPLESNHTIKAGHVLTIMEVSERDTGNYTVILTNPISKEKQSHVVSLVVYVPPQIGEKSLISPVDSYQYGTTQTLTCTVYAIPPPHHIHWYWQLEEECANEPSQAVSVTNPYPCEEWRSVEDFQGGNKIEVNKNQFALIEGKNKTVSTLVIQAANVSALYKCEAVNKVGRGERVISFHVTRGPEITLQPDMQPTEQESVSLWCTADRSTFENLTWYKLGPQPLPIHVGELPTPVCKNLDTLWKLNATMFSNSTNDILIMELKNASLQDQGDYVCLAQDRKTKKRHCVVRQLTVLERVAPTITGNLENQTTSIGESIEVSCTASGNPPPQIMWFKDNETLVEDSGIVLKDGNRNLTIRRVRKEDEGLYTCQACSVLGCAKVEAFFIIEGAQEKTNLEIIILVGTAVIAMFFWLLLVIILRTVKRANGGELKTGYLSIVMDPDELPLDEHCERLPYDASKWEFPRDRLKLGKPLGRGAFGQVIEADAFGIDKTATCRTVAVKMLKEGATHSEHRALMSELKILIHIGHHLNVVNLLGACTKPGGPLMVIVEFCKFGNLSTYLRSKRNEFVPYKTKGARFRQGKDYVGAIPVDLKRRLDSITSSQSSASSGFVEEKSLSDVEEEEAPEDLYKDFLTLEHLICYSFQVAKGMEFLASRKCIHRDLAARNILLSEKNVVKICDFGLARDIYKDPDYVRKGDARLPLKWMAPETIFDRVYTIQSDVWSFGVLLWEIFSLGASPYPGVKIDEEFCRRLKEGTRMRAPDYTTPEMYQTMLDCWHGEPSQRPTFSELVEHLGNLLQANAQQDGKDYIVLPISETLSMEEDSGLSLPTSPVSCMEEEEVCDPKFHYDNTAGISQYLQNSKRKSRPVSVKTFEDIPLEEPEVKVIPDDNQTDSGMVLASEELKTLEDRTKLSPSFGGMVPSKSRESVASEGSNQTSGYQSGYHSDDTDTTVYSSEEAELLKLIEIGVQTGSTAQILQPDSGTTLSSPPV
# ASSAY COMMENT: cell-based
# Type: cell-based
# CONDITION DETAILS: at 10 μM, control 326.80 ± 1.9
// reported VEGFR-2 pg/mL ± SEM PaCa2 per item
Use pg/mL as the unit, but write only the number.

- CCOP(=O)(OCC)N1C/C(=C\c2ccc(F)cc2)C(=O)C2(C1)C(c1ccc(F)cc1)CN(C)C21C(=O)Nc2ccc(Cl)cc21 (centres unmarked) [Compound 17f]: 27.53
- CCOP(=O)(OCC)N1C/C(=C\c2ccc(Cl)cc2)C(=O)C2(C1)C(c1ccc(Cl)cc1)CN(C)C21C(=O)Nc2ccc(F)cc21 (centres unmarked) [Compound 17i]: 42.76
- CCOP(=O)(OCC)N1C/C(=C\c2cccs2)C(=O)C2(C1)C(c1cccs1)CN(C)C21C(=O)Nc2ccc(F)cc21 (centres unmarked) [Compound 17r]: 66.53
- CCOP(=O)(OCC)N1C/C(=C\c2cccs2)C(=O)C2(C1)C(c1cccs1)CN(C)C21C(=O)Nc2ccccc21 (centres unmarked) [Compound 17q]: 135.70

Sure, the documented VEGFR-2 pg/mL ± SEM PaCa2 for CCOP(=O)(OCC)N1C/C(=C\c2ccccc2)C(=O)C2(C1)C(c1ccccc1)CN(C)C21C(=O)Nc2ccc(C)cc21 (centres unmarked) [Compound 17d] is 53.42

So for CCOP(=O)(OCC)N1C/C(=C\c2ccc(Br)cc2)C(=O)C2(C1)C(c1ccc(Br)cc1)CN(C)C21C(=O)Nc2ccccc21 (centres unmarked) [Compound 17l] , the logged VEGFR-2 pg/mL ± SEM PaCa2 turned out to be 86.45

Reported VEGFR-2 pg/mL ± SEM PaCa2 of CCOP(=O)(OCC)N1C/C(=C\c2ccc(C)cc2)C(=O)C2(C1)C(c1ccc(C)cc1)CN(C)C21C(=O)Nc2ccc(F)cc21 (centres unmarked) [Compound 17n] : 40.70

----------
# inhibition at 10 µM listing for each entry below
# TESTED TARGET: COX-1 (Ovis aries, UniProt P05979)
# Construct: purchased BioVision incorporated USA K548–100
# ASSAY COMMENT: biochemical
# CONDITION DETAILS: 3 replicates, read-out: % Inhibition of COX-1 ± SEM
Respond with the bare value in %.

- CCOP(=O)(OCC)N1C/C(=C\c2ccc(Cl)cc2)C(=O)C2(C1)C(c1ccc(Cl)cc1)CN(C)C21C(=O)Nc2ccccc21 (centres unmarked) [Compound 17h]: 53.5
- CCOP(=O)(OCC)N1C/C(=C\c2cccs2)C(=O)C2(C1)C(c1cccs1)CN(C)C21C(=O)Nc2ccccc21 (centres unmarked) [Compound 17q]: 61.3
- CCOP(=O)(OCC)N1C/C(=C\c2ccc(Cl)cc2)C(=O)C2(C1)C(c1ccc(Cl)cc1)CN(C)C21C(=O)Nc2ccc(Cl)cc21 (centres unmarked) [Compound 17j]: 48.9
- CCOP(=O)(OCC)N1C/C(=C\c2ccc(C)cc2)C(=O)C2(C1)C(c1ccc(C)cc1)CN(C)C21C(=O)Nc2ccc(F)cc21 (centres unmarked) [Compound 17n]: 50.6
- CCOP(=O)(OCC)N1C/C(=C\c2cccs2)C(=O)C2(C1)C(c1cccs1)CN(C)C21C(=O)Nc2ccc(Cl)cc21 (centres unmarked) [Compound 17s]: 53.8
- CCOP(=O)(OCC)N1C/C(=C\c2ccc(Cl)cc2)C(=O)C2(C1)C(c1ccc(Cl)cc1)CN(C)C21C(=O)Nc2ccc(C)cc21 (centres unmarked) [Compound 17k]: 57.7
- CCOP(=O)(OCC)N1C/C(=C\c2ccccc2)C(=O)C2(C1)C(c1ccccc1)CN(C)C21C(=O)Nc2ccc(Cl)cc21 (centres unmarked) [Compound 17c]: 58.6
- CCOP(=O)(OCC)N1C/C(=C\c2ccccc2)C(=O)C2(C1)C(c1ccccc1)CN(C)C21C(=O)Nc2ccc(F)cc21 (centres unmarked) [Compound 17b]: 53.7

Consider CCOP(=O)(OCC)N1C/C(=C\c2ccc(F)cc2)C(=O)C2(C1)C(c1ccc(F)cc1)CN(C)C21C(=O)Nc2ccc(C)cc21 (centres unmarked) [Compound 17g] . Its measured inhibition at 10 µM is 62.1

Just so you know, measured inhibition at 10 µM for CCOP(=O)(OCC)N1C/C(=C\c2ccc(F)cc2)C(=O)C2(C1)C(c1ccc(F)cc1)CN(C)C21C(=O)Nc2ccc(Cl)cc21 (centres unmarked) [Compound 17f] came out at 57.6

Recorded result, CCOP(=O)(OCC)N1C/C(=C\c2ccccc2)C(=O)C2(C1)C(c1ccccc1)CN(C)C21C(=O)Nc2ccccc21 (centres unmarked) [Compound 17a] , inhibition at 10 µM: 49.8

Reference source: paper PMC12504763
